- Test system: MCC-26
- experiment description: qHTS assay to identify novel small-molecules to repurpose for Merkel cell carcinoma treatment (AID 1296009); also: nearly all actives have a fitted effect of over 60% in size
- particulars: MCC and control cell lines, CellTiter-Glo viability, 72 h; series mostly up to 46 µM
- From the text: MCC is a rare and aggressive neuroendocrine skin cancer with limited treatment options. Approximately 80% of MCCs have the Merkel cell polyomavirus (MCPyV) DNA integrated into the host genome (virus-positive: VP-MCC) and viral oncogenes drive oncogenesis. The remaining MCCs are virus-negative (VN-MCC) and are caused by UV mutagenesis. […] Using cell viability as a readout (CellTiter-Glo assay) we found both overlapping and distinct drugs that can be repurposed for the treatment of VP-MCC and VN-MCC. […]
Results filed as inconclusive are left out. The source made the active and inactive calls. Calls follow the shape of the dose curve; as a rule, active = well fitted inhibition curve with a large enough effect; inconclusive = small, poorly fitted or top-dose-only effect; inactive = flat fitted curve, though single readings scatter.
Hi there, use one of these labels in your reply, thanks! True (active), False (inactive)

Examples from the recorded data:
• CCc1cnn2c(NCc3ccc[n+]([O-])c3)cc(N3CCCC[C@@H]3CCO)nc12 = True
• Nc1ccc(C(=O)Nc2cccc(-c3nc(N4CCOCC4)c4oc5ncccc5c4n3)c2)cn1 = False
• C[C@H]1COc2c(N3CCN(C)CC3)c(F)cc3c(=O)c(C(=O)O)cn1c23 = False

Task: Please let me know the test result on file for O=C1c2c(O)cccc2[C@@H]([C@@H]2O[C@H](CO)[C@@H](O)[C@H](O)[C@H]2O)c2cc(CO)cc(O)c21 .
Result: False

Task: Proceed to N#CC(=C(N)Sc1ccc(N)cc1)c1ccccc1C(F)(F)F
Result: False

Task: Proceed to C[C@H]1O[C@H](O[C@H]2[C@H](O)[C@@H](O)[C@@H](O[C@H]3[C@H](O)[C@@H](O)C(O)O[C@H]3CO)O[C@H]2CO)[C@H](O)[C@@H](O)[C@H]1N[C@H]1C=C(CO)[C@@H](O)[C@H](O)[C@@H]1O (some centres undefined)
Result: False

Task: Proceed to COc1ccc(CCC(=O)c2c(O)cc(O[C@@H]3O[C@H](CO)[C@@H](O)[C@H](O)[C@@H]3O[C@@H]3O[C@@H](C)[C@H](O)[C@@H](O)[C@@H]3O)cc2O)cc1O
Result: False

Task: Proceed to O=C(C=Cc1ccc(CN(CCO)CCc2c[nH]c3ccccc23)cc1)NO
Result: True

Task: Proceed to C=CC(=O)Nc1cc(NC(=O)c2ccc(C)c(NC(=O)c3ccno3)c2)cc(C(F)(F)F)c1
Result: False

Task: Proceed to Oc1cc2c(cc1O)C1c3ccc(O)c(O)c3OCC1(O)C2 (centres undefined)
Result: False

Task: Proceed to CC(C)c1cc(C(C)C)c(CC(=O)NS(=O)(=O)Oc2c(C(C)C)cccc2C(C)C)c(C(C)C)c1
Result: False

Task: Proceed to O=C(O)c1ccc(Nc2ncc3c(n2)-c2ccc(Cl)cc2C(c2c(F)cccc2F)=NC3)cc1
Result: False

====

- experiment description: qHTS for identification of novel therapeutic agents for treatment of microphthalmiaassociated transcription factor (MiT) renal cell carcinoma (RCC) (AID 1963991); also: potency is read from the fitted curve at half-maximal effect
- particulars: TFE3-RCC UOK109 viability, CellTiter-Glo, 48 h; active = Z-AUC below -0.8 in all three lines
Records with an inconclusive call do not appear. Calls of active or inactive are those of the source.
Consider the following compounds; for each one, report its Potency.

Some compounds with known Potency results, for comparison:
- O=C1NC(=O)[C@@H](c2cn3c4c(cccc24)CCC3)[C@H]1c1c[nH]c2ccccc12: 935 nM (active)
- CCN(CC)CCNC(=O)c1c(C)[nH]c(C=C2C(=O)Nc3ccc(F)cc32)c1C: 34000 nM (active)
- Cc1cnc(Nc2ccc(CN3CCOCC3)cc2)nc1Nc1cccc(S(=O)(=O)NC(C)(C)C)c1: 4180 nM (active)
- N#Cc1c(NC(=O)c2cccc3ccccc23)sc2c1CCCC2: 833 nM (active)
- COC[C@H](NC(=O)c1cnc(C)s1)C(=O)N[C@@H](COC)C(=O)N[C@@H](Cc1ccccc1)C(=O)[C@@]1(C)CO1: 3720 nM (active)

For every item in the list below, what is its measured Potency?
1. CC(=O)[C@]1(O)Cc2c(O)c3c(c(O)c2[C@@H](O[C@H]2C[C@H](N)[C@@H](O)[C@H](C)O2)C1)C(=O)c1ccccc1C3=O
2. COc1ccc(S(=O)(=O)Nc2cccnc2Nc2ccc(O)cc2)cc1
3. C=CC(=O)Nc1cccc(Nc2nc(NC3CCC(N(C)C)CC3)nc3c2ncn3C(C)C)c1 (centres undefined)
4. C=CC(=O)Nc1ccc2ncnc(Nc3ccc(OCc4cccc(F)c4)c(Cl)c3)c2c1
5. Cn1cc(CNCC2CCN(c3ncc(C(=O)NO)cn3)CC2)c2ccccc21
6. CCc1cnn2c(NCc3ccc[n+]([O-])c3)cc(N3CCCC[C@@H]3CCO)nc12
7. CCOc1cc2ncc(C#N)c(Nc3ccc(OCc4ccccn4)c(Cl)c3)c2cc1NC(=O)C=CCN(C)C
8. O=C(C=Cc1ccc(CN(CCO)CCc2c[nH]c3ccccc23)cc1)NO

Result:
1: 332 nM (active); 2: 132 nM (active); 3: 46.9 nM (active); 4: 590 nM (active); 5: 166 nM (active); 6: 59 nM (active); 7: 16.6 nM (active); 8: 590 nM (active)

// provenance: PubChem BioAssay (NCATS)
